src = PubChem BioAssay (NCI)

System: T-47D breast
assay overview: NCI tumour cell line growth inhibition, 48 h
metric: log10 TGI (log10 of the value in µM)
Note: values are log10 of TGI expressed in µM.

Return the recorded log10 TGI value; entry: CN(C)CCn1c(=O)c2ccc3c4c(nn3CCN(C)C)c3cc([N+](=O)[O-])ccc3n(c1=O)c24
1.03

Return the recorded log10 TGI value; entry: COc1ccc(N=Nc2c(C)c(C#N)c(=S)n(C3OC(CO)C(O)C(O)C3O)c2C)cc1 (configuration not stated)
1.90

Return the recorded log10 TGI value; entry: CN1CCN(c2nc(NCCCNc3ccnc4cc(Cl)ccc34)c3ccccc3n2)CC1
0.83

Return the recorded log10 TGI value; entry: CCCCNC(=O)Oc1ccc(/C(=C(/C)Cc2ccc(OC)cc2)c2ccc(OCCN3CCCC3)cc2)cc1
0.64

More entries:
Return the recorded log10 TGI value; entry: N#Cc1c(N)nc(N)nc1N[C@H](c1nc2c(F)ccc(Cl)c2c(=O)n1-c1cccnc1)C1CC1
0.90

Return the recorded log10 TGI value; entry: NCCOc1ccccc1/C=C1\c2ccccc2-c2ccc([N+](=O)[O-])cc21
0.54

Return the recorded log10 TGI value; entry: CC(C)(C)c1cc(OCc2nnc3sc(=S)[nH]n23)c(Cl)cc1OCc1nnc2sc(=S)[nH]n12
1.76

Return the recorded log10 TGI value; entry: Cc1ccc(/C=C2\CCCC(CN(C)C)C2=O)cc1 (configuration not stated)
0.51

Return the recorded log10 TGI value; entry: CC(=O)ON1C(=O)c2cccc3cccc(c23)C1=O
1.80

Return the recorded log10 TGI value; entry: COC(=O)/C=C1/SC(N2N=C(c3cccs3)CC2c2ccc(F)cc2)=NC1=O (configuration not stated)
0.92

Return the recorded log10 TGI value; entry: COC(=O)c1c[nH]c2c1-c1cc(C(=O)OCc3ccccc3)n(S(=O)(=O)c3ccc(C)cc3)c1C(=O)C2=O
0.39

Return the recorded log10 TGI value; entry: O/N=C(\CC(O)(C(F)(F)F)C(F)(F)F)c1cccc(Cl)c1
1.90

Return the recorded log10 TGI value; entry: COC1=CC(=O)c2c(c(COP(=O)(N(C)CCBr)N(C)CCBr)cn2C)C1=O
1.28

Return the recorded log10 TGI value; entry: COC(=O)C(CBr)CBr
0.86
